The values you see were collected from patent US20040038855A1.

Measured log10 Ki values are reported for all entries that follow.
- system: human Alpha-1a Adrenergic receptor (Homo sapiens)
- Construct: expressed in transfected cells
- Sequence (P35348 whole entry): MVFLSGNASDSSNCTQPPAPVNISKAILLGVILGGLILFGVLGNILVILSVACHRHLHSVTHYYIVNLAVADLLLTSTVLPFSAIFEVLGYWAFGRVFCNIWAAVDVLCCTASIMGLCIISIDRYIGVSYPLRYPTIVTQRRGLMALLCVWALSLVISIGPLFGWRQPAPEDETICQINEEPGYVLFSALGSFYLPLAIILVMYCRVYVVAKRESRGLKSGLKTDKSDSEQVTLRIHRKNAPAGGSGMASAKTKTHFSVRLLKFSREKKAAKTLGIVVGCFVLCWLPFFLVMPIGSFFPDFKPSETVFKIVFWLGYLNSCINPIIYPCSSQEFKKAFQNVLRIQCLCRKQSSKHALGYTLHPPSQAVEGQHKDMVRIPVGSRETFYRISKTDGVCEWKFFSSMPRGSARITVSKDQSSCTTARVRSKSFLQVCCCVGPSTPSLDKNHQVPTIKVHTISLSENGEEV
- procedureDetails: Binding affinity at the human alpha-1A adrenergic receptor
- conditionParameters: Table 3c; read-out: hAlpha-1a Ki
Hello, just confirming the data are log10 of Ki with units of nM.

CC(=O)Nc1cccc(C2CCN(CCCNC(=O)N3C(=O)OCC3Cc3ccc(F)cc3)CC2)c1 (stereo not shown) = 4.04
COCC1=C(C(=O)OC)[C@H](c2ccc(F)c(F)c2)N(C(=O)NCCCN2CCC(c3cccc(N)c3)CC2)C(=O)N1 = 1.38
CCOc1ccccc1O[C@@H](CCN1CCC(c2cccc(NC(=O)C(C)C)c2)CC1)c1ccccc1 = 2.79
COCC1=C(C(=O)OC)[C@H](c2ccc(F)c(F)c2)N(C(=O)NCCCN2CCC(c3cccc(NC(=O)CC(C)(C)C)c3)CC2)C(=O)N1 = 0.94
CC(C)C(=O)Nc1cccc(C2CCN(CCCCCCN3C(=O)c4ccccc4C3=O)CC2)c1 = 3.17
CC(=O)Nc1cccc(C2CCN(CCCNC(=O)N3C(=O)NC4=C(C(=O)OC4)C3c3ccc4c(c3)OCO4)CC2)c1 (stereo not shown) = 3.36

For CC(C)C(=O)Nc1cccc(C2CCN(CC[C@H](Oc3ccc(C#N)cc3)c3ccccc3)CC2)c1 the compound record lists log10 Ki as 2.37

For CC(C)C(=O)Nc1cccc(C2CCN(CC[C@@H](Oc3cc(F)ccc3F)c3ccccc3)CC2)c1 the compound record lists log10 Ki as 2.27

For COC(CCN1CCC(c2cccc(NC(=O)C(C)C)c2)CC1)c1ccccc1 (stereo not shown) the compound record lists log10 Ki as 3.04

For COC(CCN1CCC(c2cccc(NC(=O)C(C)C)c2)CC1)c1ccc(C)cc1 (stereo not shown) the compound record lists log10 Ki as 2.64

For CC(C)C(=O)Nc1cccc(C2CCN(CCCCN3C(=O)c4ccccc4C3=O)CC2)c1 the compound record lists log10 Ki as 3.20

For CC(=O)Nc1cccc(C2CCN(CCCNC(=O)N3C(=O)OC[C@@H]3c3cc(F)cc(F)c3)CC2)c1 the compound record lists log10 Ki as 2.81

For CC(C)C(=O)Nc1cccc(C2CCN(CC[C@@H](Oc3cccc([N+](=O)[O-])c3)c3ccccc3)CC2)c1 the compound record lists log10 Ki as 2.86

----------
- system: human Dopamine D2 receptor (Homo sapiens)
- Construct: purchased BioSignal, Inc. (Montreal, Canada)
- Sequence (P14416 whole entry): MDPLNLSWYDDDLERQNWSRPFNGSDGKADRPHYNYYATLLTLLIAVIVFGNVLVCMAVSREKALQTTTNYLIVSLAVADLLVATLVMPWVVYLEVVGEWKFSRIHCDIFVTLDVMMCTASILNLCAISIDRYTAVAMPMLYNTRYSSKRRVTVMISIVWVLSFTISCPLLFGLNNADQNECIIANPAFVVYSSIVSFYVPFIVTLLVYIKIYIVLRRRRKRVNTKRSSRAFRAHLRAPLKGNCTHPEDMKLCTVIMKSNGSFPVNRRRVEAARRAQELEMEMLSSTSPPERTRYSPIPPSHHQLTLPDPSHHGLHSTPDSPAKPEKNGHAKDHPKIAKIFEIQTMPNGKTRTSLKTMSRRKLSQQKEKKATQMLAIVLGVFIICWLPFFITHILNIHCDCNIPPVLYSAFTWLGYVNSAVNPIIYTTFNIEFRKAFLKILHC
- procedureDetails: Binding affinity at the human dopamine D2 receptor
- conditionParameters: Table 3c; read-out: hD2 Ki
Measured pKi values are reported for all entries that follow.
By convention, pKi is the negative base-10 log of a molar concentration.

CC(C)C(=O)Nc1cccc(C2CCN(CC[C@@H](Oc3cccc([N+](=O)[O-])c3)c3ccccc3)CC2)c1 [Example 135] = 6.61

For COc1cccc(CC(=O)Nc2cccc(C3CCN(CCCC(=O)c4ccc(C)c(C)c4)CC3)c2)c1 [Example 61] the compound record lists pKi as 5.94

For CCC(=O)Nc1cccc(C2CCN(CCCNC(=O)N3C(=O)NC(COC)=C(C(=O)OC)[C@@H]3c3ccc(F)c(F)c3)CC2)c1 [Example 41] the compound record lists pKi as 5.02

For COc1cccc(CC(=O)Nc2cccc(C3CCN(CCCC(=O)c4ccc(OC)cc4OC)CC3)c2)c1 [Example 80] the compound record lists pKi as 5.90

For COCC1=C(C(=O)OC)[C@H](c2ccc(F)c(F)c2)N(C(=O)NCCCN2CCC(c3cccc(NC(=O)CC(C)(C)C)c3)CC2)C(=O)N1 [Example 40] the compound record lists pKi as 5.58

For COCC1=C(C(=O)NCCCN2CCC(c3cccc(NC(=O)C(C)C)c3)CC2)[C@@H](c2ccc(F)c(F)c2)NC(=O)N1 [Example 50] the compound record lists pKi as 4.70

For COCC1=C(C(=O)NCCCN2CCC(c3cccc(NC(=O)CC(C)C)c3)CC2)[C@@H](c2ccc(F)c(F)c2)NC(=O)N1 [Example 47] the compound record lists pKi as 4.87

For CC(C)C(=O)Nc1cccc(C2CCN(CC[C@@H](Oc3ccccc3)c3ccccc3)CC2)c1 [Example 112] the compound record lists pKi as 6.36
